Just for reference, patent US9340577B2 is where these values come from.

test.target: A*0203 (Homo sapiens, UniProt P04439, A173T/D140Y/D185E/D98H/E277Q/G131W/G231S/I119V/I121R/I166T/I218V/L180W/L300P/L318F/N151K/N90K/P208A/P217A/Q86G/Q94H/R138H/R169H/T345S)
procedure.details: biochemical
metric.name: IC50 (nM)
Answer with a number only, understood to be in nM.

CC[C@H](C)[C@H](N)C(=O)N[C@@H](CCSC)C(=O)N[C@H](C(=O)NCC(=O)N[C@H](C(=O)N[C@@H](CC(C)C)C(=O)N[C@H](C(=O)NCC(=O)N[C@H](C(=O)N[C@@H](C)C(=O)N[C@H](C(=O)O)C(C)C)C(C)C)C(C)C)C(C)C)[C@@H](C)CC [Peptide 9013.0346] | 55

Could you tell me which IC50 is on file for CC(C)[C@H](NC(=O)[C@@H](NC(=O)[C@H](CC(N)=O)NC(=O)[C@H](CCC(N)=O)NC(=O)[C@H](C)NC(=O)[C@H](CCC(=O)O)NC(=O)[C@@H]1CCCN1C(=O)[C@H](CCC(=O)O)NC(=O)[C@H](CS)NC(=O)[C@@H](NC(=O)[C@@H](N)Cc1ccccc1)[C@@H](C)O)[C@@H](C)O)C(=O)O [Peptide 9013.0323] ?
86

Note, next up: CC[C@H](C)[C@H](NC(=O)CNC(=O)[C@@H](NC(=O)[C@@H](NC(=O)[C@H](C)NC(=O)CN)[C@@H](C)O)C(C)C)C(=O)N[C@@H](CCSC)C(=O)N[C@H](C(=O)NCC(=O)N[C@H](C(=O)N[C@H](C(=O)O)C(C)C)C(C)C)[C@@H](C)CC [Peptide 9013.0342]
341
